# Tested on: tubulin
# method: Tubulin polymerization inhibition assay (Cytoskeleton kit);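 note: Cell-free tubulin polymerization read by fluorescent reporter enhancement over a 30 min reaction, with the compound-free kit control taken as 100% activity and inhibition relative to it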
# experimental_conditions: conc 1 (unit not given), control = 120, codes 522-537 run
Tag: rule met if measured Tub. enzyme inhibition assay K. Activity is not below 90, rule not met if it is.

**Query** # bool: Tub. enzyme inhibition assay K. Activity of Cc1nc(SCC(=O)Nc2nc(-c3ccc(Cl)cc3)cs2)sc1C(=O)/C=C/c1ccc(Cl)cc1 [Compound 10g] >= 90
**Result** rule met

**Query** Determine whether this molecule has Tub. enzyme inhibition assay K. Activity no lower than 90: Cc1nc(SCC(=O)Nc2nc(-c3ccc(Cl)cc3)cs2)sc1C(=O)/C=C/c1ccccc1 [Compound 10f]
**Result** rule not met

**Query** Please tell me: is the molecule COc1ccc(/C=C/C(=O)c2sc(SCC(=O)Nc3nc(-c4ccccc4)cs3)nc2C)cc1 [Compound 10e] at or over 90 in terms of Tub. enzyme inhibition assay K. Activity?
**Result** rule met

**Query** Hi team, for Cc1ccc(-c2csc(NC(=O)CSc3nc(C)c(C(=O)/C=C/c4ccccc4)s3)n2)cc1 [Compound 10k] , is the recorded Tub. enzyme inhibition assay K. Activity at or above 90?
**Result** rule met

**Query** Hello, I need to know if Cc1ccc(-c2csc(NC(=O)CSc3nc(C)c(C(=O)/C=C/c4ccc(F)cc4)s3)n2)cc1 [Compound 10m] has measured Tub. enzyme inhibition assay K. Activity not below 90. Thanks!
**Result** rule not met

**Query** Given COc1ccc(/C=C/C(=O)c2sc(SCC(=O)Nc3nc(-c4ccc(Cl)cc4)cs3)nc2C)cc1 [Compound 10j] , state whether its Tub. enzyme inhibition assay K. Activity is at least 90.
**Result** rule met

Data credit: paper PMC12040969
